biological target: PPARγ LBD (Homo sapiens); construct: PPARγ LBD was expressed as N-terminal His-tagged proteins using a pET28 vector; His tag (N, cleaved yes); made in house; host or cells: E. coli BL21 DE3; experiment: Surface plasmon resonance, PPARγ receptor/saponin or sapogenin interactions; type: binding; conditions: SPR, koff/kon, 1:1 model; for 2:1 model fits the first value (high affinity site); read-out: Kd
Sequence (P37231 238-503 limits assumed): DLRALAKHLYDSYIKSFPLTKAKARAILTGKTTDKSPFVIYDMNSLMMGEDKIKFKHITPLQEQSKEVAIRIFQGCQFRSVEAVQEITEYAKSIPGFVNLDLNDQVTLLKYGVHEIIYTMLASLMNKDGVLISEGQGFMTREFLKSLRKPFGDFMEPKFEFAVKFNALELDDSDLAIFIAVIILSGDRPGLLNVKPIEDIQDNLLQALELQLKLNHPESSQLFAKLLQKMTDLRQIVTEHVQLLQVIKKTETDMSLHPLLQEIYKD
metric: Kd

State, in one line, measured Kd of CC1(C)CC[C@]2(C(=O)O)CC[C@]3(C)C(=CC[C@@H]4[C@@]5(C)CC[C@H](O)[C@@](C)(CO)[C@@H]5CC[C@]43C)[C@@H]2C1
> 1000 µM
